Hey, just so you know, these numbers are from PubChem BioAssay (NCATS).

Entries and their activity, negative = cell killing
RUN_DESCRIPTION: Drug repurposing screens with cells derived from glioblastoma tumor samples (AID 1345199); further: on the % scale 0 is the no-effect control and ±100 the full control effect; nearly all actives have a fitted effect of over 40% in size
TEST_CONDITIONS: GBM patient neurospheres viability, ATP luminescence, 48 h; at 46.1 µM (top of the series); tumour line C
Records with an inconclusive call do not appear.
Provide the reading as a plain figure in %.

Consider the reported activity, negative = cell killing for these molecules:
MOLECULE	MEASURED_PARAMETER	OBS_VALUE
NS(=O)(=O)c1cc2c(cc1Cl)NC=NS2(=O)=O	activity, negative = cell killing	23.2
CC(=O)Oc1ccccc1C(=O)O	activity, negative = cell killing	-19.2
O=C1CCc2cc(OCCCCc3nnnn3C3CCCCC3)ccc2N1	activity, negative = cell killing	-10.2
c1ccc([C@H]2CN3CCSC3=N2)cc1	activity, negative = cell killing	-7.79
Cc1[nH]c(=O)c(C#N)cc1-c1ccncc1	activity, negative = cell killing	2.71

Input line: Check the records and state activity, negative = cell killing for Cn1cnc([N+](=O)[O-])c1Sc1ncnc2nc[nH]c12
Output line: -41.7

Input line: Check the records and state activity, negative = cell killing for O=C1CCC(N2C(=O)c3ccccc3C2=O)C(=O)N1 (centres undefined)
Output line: 3.21

Input line: Check the records and state activity, negative = cell killing for Cc1c(C)c2c(c(C)c1O)CCC(C)(COc1ccc(CC3SC(=O)NC3=O)cc1)O2 (centres undefined)
Output line: -19.7

---

RUN_DESCRIPTION: Quantitative High-Throughput drug screen in 47 multiple myeloma cell lines against the NCATS MIPE library collection: KMS20_JCRB cell viability assay (AID 1918973); further: nearly all actives have a fitted effect of over 45% in size
TEST_CONDITIONS: CellTiter-Glo ATP, 48 h; series mostly up to 45.8 µM
Inconclusive results are not listed. Calls of active or inactive are those of the source. Calls come from the whole dose curve; as a rule, active = well fitted cell-killing curve with a large enough effect; inconclusive = small, poorly fitted or top-dose-only effect, or effect the other way; inactive = no such curve, though single readings can be large or run the other way.
Bench note: report the call from active, inactive

COMPOUND	CLASS_ASSIGNMENT
NS(=O)(=O)c1cc2c(cc1Cl)NC=NS2(=O)=O	inactive
CC(c1cc2ccccc2s1)N(O)C(N)=O (centres undefined)	inactive
Nc1nc2ccc(OC(F)(F)F)cc2s1	inactive
Cc1cn[nH]c1	active

Input line: Entry Oc1cccc(-c2nc(N3CCOCC3)c3oc4ncccc4c3n2)c1 : call = ?
Output line: active

Input line: Entry COc1ccc(-c2ccc3c(N4CCOC[C@H]4C)nc(N4CCOC[C@H]4C)nc3n2)cc1CO : call = ?
Output line: active

Input line: Entry CCOc1cc(C(=O)Nc2ccc(Cl)c(-c3nc4ccccc4[nH]3)c2)cc(OCC)c1OCC : call = ?
Output line: active

Input line: Entry O=S(=O)(N=Cc1c(O)ccc2ccccc12)c1cccs1 : call = ?
Output line: active

Input line: Entry Nc1nc2c(ncn2COCCO)c(=O)[nH]1 : call = ?
Output line: inactive

Input line: Entry COc1ccccc1[C@H](c1cccc2ccccc12)[C@@](C)(C#N)C(=O)N1CCC(c2cccc(C(F)(F)F)c2)CC1 : call = ?
Output line: active

Input line: Entry CCCc1nn(C)c2c(=O)[nH]c(-c3cc(S(=O)(=O)N4CCN(C)CC4)ccc3OCC)nc12 : call = ?
Output line: active

Input line: Entry CCn1cc(C(=O)O)c(=O)c2cc(F)c(N3CCNC(C)C3)c(F)c21 (centres undefined) : call = ?
Output line: inactive

---

Entries and their remaining proliferation (% of control), lower = more inhibition
RUN_DESCRIPTION: qHTS profiling for inhibitors of Plasmodium falciparum (HB3) proliferation (AID 743324);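 further: 100% = DMSO vehicle wells and 0% = artemisinin-treated control wells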
TEST_CONDITIONS: Plasmodium falciparum HB3 blood-stage proliferation; at 28.7 µM (top of the series) unless noted
Text: Plasmodium falciparum is a virulent malarial parasite that kills 1-2 million people worldwide each year. Transmitted by mosquitoes, the sporozoite form of the parasite enters the blood stream to infect hepatocytes, where they become merozoites that infect red blood cells (erythrocytes). […] Because mature erythrocytes lack DNA, only Plasmodium-derived DNA is detected. […]
Provide the reading as a plain figure in %.

Consider the reported remaining proliferation (% of control), lower = more inhibition for these compounds:
COMPOUND	OBS_VALUE
O=C(O)c1ccc(-c2c[nH]c3ccc(-c4ccccc4)cc23)cc1C1CCCC1	-0.0688
CCOc1ccc(Cc2cc([C@@H]3O[C@H](CO)[C@@H](O)[C@H](O)[C@@H]3O)ccc2Cl)cc1	112
Cc1ccccc1C(C(=O)NC1CCCC1)N(C(=O)Cn1cnc2ccccc21)c1cccc(F)c1 (centres undefined)	34.4
CC(=O)NC(C)c1ccc(Oc2ccc(OC(C)C)cc2)cc1 (centres undefined)	95.2

Input line: Check the records and state remaining proliferation (% of control), lower = more inhibition for O=C(O)[C@@H](c1ccc(OCc2ccc3ccccc3n2)cc1)C1CCCC1
Output line: 106

Input line: Check the records and state remaining proliferation (% of control), lower = more inhibition for Cc1cc(-c2nnc3n2CCCCC3)c(C)n1-c1ccc(F)cc1
Output line: 0.91

Input line: Check the records and state remaining proliferation (% of control), lower = more inhibition for NC(=O)C1CCCc2c1[nH]c1ccc(Cl)cc21 (centres undefined)
Output line: 95

Input line: Check the records and state remaining proliferation (% of control), lower = more inhibition for CCOc1cc(N2CCC(O)CC2)ccc1Nc1ncc2c(n1)N(C)c1ccccc1C(=O)N2C
Output line: -0.346

Input line: Check the records and state remaining proliferation (% of control), lower = more inhibition for CCN(CCCO)CCCOc1ccc2c(Nc3cc(CC(=O)Nc4cccc(F)c4)[nH]n3)ncnc2c1
Output line: 0.759

---

Test system: MKL-2
RUN_DESCRIPTION: qHTS assay to identify novel small-molecules to repurpose for Merkel cell carcinoma treatment (AID 1296009); further: on the % scale 0 is the no-effect control and ±100 the full control effect; nearly all actives have a fitted effect of over 60% in size
TEST_CONDITIONS: MCC and control cell lines, CellTiter-Glo viability, 72 h; series mostly up to 46 µM
Records with an inconclusive call do not appear. Calls of active or inactive are those of the source. Calls come from the whole dose curve; as a rule, active = well fitted inhibition curve with a large enough effect; inconclusive = small, poorly fitted or top-dose-only effect; inactive = flat fitted curve, though single readings scatter.

COMPOUND	outcome
Cc1c(C)c2c(c(C)c1O)CCC(C)(COc1ccc(CC3SC(=O)NC3=O)cc1)O2 (stereo not drawn)	inactive
Cc1cn[nH]c1	inactive
CC(=O)Oc1ccccc1C(=O)O	inactive

---

RUN_DESCRIPTION: qHTS of pediatric cancer cell lines to identify multiple opportunities for drug repurposing: Confirmatory screen for U-2 OS cells (AID 1347122); further: nearly all actives have a fitted effect of over 65% in size; further: potency means the concentration at half of the fitted maximal effect
TEST_CONDITIONS: U-2 OS osteosarcoma cell viability; series mostly up to 45.9 µM
Results filed as inconclusive are left out. Calls of active or inactive are those of the source. Calls come from the whole dose curve; as a rule, active = well fitted cell-killing curve with a large enough effect; inconclusive = small, poorly fitted or top-dose-only effect; inactive = no such curve, though single readings can be large or run the other way.
MEASURED_PARAMETER: Potency

Consider the reported Potency for these compounds:
COMPOUND	OBS_VALUE
CCCS(=O)(=O)Nc1ccc(F)c(C(=O)c2c[nH]c3ncc(-c4ccc(Cl)cc4)cc23)c1F	23.3 µM (active)
NCCCC(N)(C(=O)O)C(F)F (stereo not drawn)	inactive
Nc1nc2[nH]cc(CCc3ccc(C(=O)N[C@@H](CCC(=O)O)C(=O)O)cc3)c2c(=O)[nH]1	inactive
COc1ccc(-c2ccc3c(N4CCOC[C@H]4C)nc(N4CCOC[C@H]4C)nc3n2)cc1CO	0.329 µM (active)

Input line: Check the records and state Potency for CC(C=CC1=C(C)CCCC1(C)C)=CC=CC(C)=CC(=O)O
Output line: inactive

Input line: Check the records and state Potency for Cn1cnc2c(F)c(Nc3ccc(Br)cc3Cl)c(C(=O)NOCCO)cc21
Output line: 16.5 µM (active)

Input line: Check the records and state Potency for Nc1nc2c(ncn2COCCO)c(=O)[nH]1
Output line: inactive

Input line: Check the records and state Potency for O=C(NOC[C@H](O)CO)c1ccc(F)c(F)c1Nc1ccc(I)cc1F
Output line: 1.31 µM (active)

---

MEASURED_TARGET: Tyrosine-protein kinase Yes (Homo sapiens) (UniProt P07947)
Sequence (P07947 whole entry, looked up): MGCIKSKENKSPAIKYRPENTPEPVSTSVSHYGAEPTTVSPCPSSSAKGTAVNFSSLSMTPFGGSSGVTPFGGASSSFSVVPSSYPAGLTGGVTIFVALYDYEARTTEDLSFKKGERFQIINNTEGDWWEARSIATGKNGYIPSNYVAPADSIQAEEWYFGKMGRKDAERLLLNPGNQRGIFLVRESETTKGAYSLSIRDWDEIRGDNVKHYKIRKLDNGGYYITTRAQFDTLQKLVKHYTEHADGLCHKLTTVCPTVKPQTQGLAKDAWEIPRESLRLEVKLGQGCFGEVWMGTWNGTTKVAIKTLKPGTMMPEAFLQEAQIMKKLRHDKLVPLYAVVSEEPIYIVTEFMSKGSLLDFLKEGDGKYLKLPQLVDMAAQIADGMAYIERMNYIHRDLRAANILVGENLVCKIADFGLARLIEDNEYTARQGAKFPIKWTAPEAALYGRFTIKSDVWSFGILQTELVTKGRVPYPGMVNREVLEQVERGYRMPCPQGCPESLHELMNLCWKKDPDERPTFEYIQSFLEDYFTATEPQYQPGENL
RUN_DESCRIPTION: qHTS for small molecule inhibitors of Yes1 kinase: Primary Screen (AID 686947); further: nearly all actives have a fitted effect of over 60% in size
TEST_CONDITIONS: Yes1 kinase biochemical qHTS inhibition; series mostly up to 76.9 µM
Records with an inconclusive call do not appear. Calls of active or inactive are those of the source. Calls follow the shape of the dose curve; as a rule, active = well fitted inhibition curve with a large enough effect; inconclusive = small, poorly fitted or top-dose-only effect; inactive = no such curve, though single readings can be large or run the other way.
Bench note: report the call from active, inactive

CCCS(=O)(=O)Nc1ccc(F)c(C(=O)c2c[nH]c3ncc(Cl)cc23)c1F active
CCCn1c(=O)c2[nH]c(C34CC5CC3C[C@@H](C5)C4)nc2n(CCC)c1=O inactive
CS(=O)(=O)Oc1ccc2c(NC(N)=O)c(C(=O)c3ccc(Cl)cc3Cl)oc2c1 inactive

Shifting focus to the compound that follows.
Input line: Entry COc1ccc2c3n(c(=NC(=O)c4cccnc4)nc2c1OC)CCN3 : call = ?
Output line: inactive

---

RUN_DESCRIPTION: qHTS of pediatric cancer cell lines to identify multiple opportunities for drug repurposing: Primary screen for SJ-GBM2 cells (AID 1347091)
TEST_CONDITIONS: SJ-GBM2 viability, CellTiter-Glo luminescence, 48 h; series mostly up to 46 µM
Results filed as inconclusive are left out. Active and inactive are the calls of the source. Calls come from the whole dose curve; as a rule, active = well fitted cell-killing curve with a large enough effect; inconclusive = small, poorly fitted or top-dose-only effect; inactive = no such curve, though single readings can be large or run the other way.
Bench note: report the call from True for active, False for inactive

Known results for compounds:
COMPOUND	CLASS_ASSIGNMENT
O=C(Nc1cccnc1)N1CCC(Cc2cccc(Oc3ccc(C(F)(F)F)cn3)c2)CC1	True
Nc1nc2ccc(OC(F)(F)F)cc2s1	True

Input line: Entry Cc1cn[nH]c1 : call = ?
Output line: False

Input line: Entry O=NN(CCCl)C(=O)NCCCl : call = ?
Output line: False

Input line: Entry CCn1cc(C(=O)O)c(=O)c2cc(F)c(N3CCNC(C)C3)c(F)c21 (stereo unspecified) : call = ?
Output line: False

Input line: Entry Cc1c(CCOc2ccc(C(=O)O)cc2)c2cc(Cl)ccc2n1C(c1ccccc1)c1ccccc1 : call = ?
Output line: False

Input line: Entry COc1nc(-c2ccc3c(c2)OCO3)n(-c2ccc(NC(=O)CSc3ccccc3)cc2)n1 : call = ?
Output line: False

Input line: Entry c1ccc([C@H]2CN3CCSC3=N2)cc1 : call = ?
Output line: False

Input line: Entry CCCCNc1cc(C(=O)O)cc(S(N)(=O)=O)c1Oc1ccccc1 : call = ?
Output line: False

Input line: Entry CCCS(=O)(=O)Nc1ccc(F)c(C(=O)c2c[nH]c3ncc(Cl)cc23)c1F : call = ?
Output line: True

Input line: Entry C[C@]12CCC(=O)C=C1CC[C@@H]1[C@@H]2[C@@H](O)C[C@@]2(C)[C@H]1CC[C@]2(O)C(=O)CO : call = ?
Output line: False

Input line: Entry CCN(CC)CCCC(C)Nc1nc(C)cc(Nc2ccc3nc(C)cc(N)c3c2)n1 (stereo unspecified) : call = ?
Output line: False

Input line: Entry CC(c1cc2ccccc2s1)N(O)C(N)=O (stereo unspecified) : call = ?
Output line: False

Input line: Entry CC(C)(C)NCC(O)c1ccc(O)c(CO)c1 (stereo unspecified) : call = ?
Output line: False

Input line: Entry CS(=O)(=O)c1ccc(C(=O)Nc2ccc(Cl)c(-c3ccccn3)c2)c(Cl)c1 : call = ?
Output line: False

Input line: Entry Cc1c(C)c2c(c(C)c1O)CCC(C)(COc1ccc(CC3SC(=O)NC3=O)cc1)O2 (stereo unspecified) : call = ?
Output line: False

Input line: Entry CCn1c(-c2nonc2N)nc2cnc(Oc3cccc(NC(=O)c4ccc(OCCN5CCOCC5)cc4)c3)cc21 : call = ?
Output line: True

Input line: Entry NNCCc1ccccc1 : call = ?
Output line: False

Input line: Entry CCC(C)N(C)C(=O)c1cc2ccccc2c(-c2ccccc2Cl)n1 (stereo unspecified) : call = ?
Output line: False

Input line: Entry COc1ccc(COc2cc3oc(=O)c4cc(C(C)O)ccc4c3cc2OC)cc1 (stereo unspecified) : call = ?
Output line: True

Input line: Entry CC1(C)SCCN(S(=O)(=O)c2ccc(OCC#CCO)cc2)[C@@H]1C(=O)NO : call = ?
Output line: False
